- Assayed System: T1, ErbB3-mFc (human)
- T1 construct: Dimeric soluble ErbB3; also called hErbB3.mFc
- T1 chain: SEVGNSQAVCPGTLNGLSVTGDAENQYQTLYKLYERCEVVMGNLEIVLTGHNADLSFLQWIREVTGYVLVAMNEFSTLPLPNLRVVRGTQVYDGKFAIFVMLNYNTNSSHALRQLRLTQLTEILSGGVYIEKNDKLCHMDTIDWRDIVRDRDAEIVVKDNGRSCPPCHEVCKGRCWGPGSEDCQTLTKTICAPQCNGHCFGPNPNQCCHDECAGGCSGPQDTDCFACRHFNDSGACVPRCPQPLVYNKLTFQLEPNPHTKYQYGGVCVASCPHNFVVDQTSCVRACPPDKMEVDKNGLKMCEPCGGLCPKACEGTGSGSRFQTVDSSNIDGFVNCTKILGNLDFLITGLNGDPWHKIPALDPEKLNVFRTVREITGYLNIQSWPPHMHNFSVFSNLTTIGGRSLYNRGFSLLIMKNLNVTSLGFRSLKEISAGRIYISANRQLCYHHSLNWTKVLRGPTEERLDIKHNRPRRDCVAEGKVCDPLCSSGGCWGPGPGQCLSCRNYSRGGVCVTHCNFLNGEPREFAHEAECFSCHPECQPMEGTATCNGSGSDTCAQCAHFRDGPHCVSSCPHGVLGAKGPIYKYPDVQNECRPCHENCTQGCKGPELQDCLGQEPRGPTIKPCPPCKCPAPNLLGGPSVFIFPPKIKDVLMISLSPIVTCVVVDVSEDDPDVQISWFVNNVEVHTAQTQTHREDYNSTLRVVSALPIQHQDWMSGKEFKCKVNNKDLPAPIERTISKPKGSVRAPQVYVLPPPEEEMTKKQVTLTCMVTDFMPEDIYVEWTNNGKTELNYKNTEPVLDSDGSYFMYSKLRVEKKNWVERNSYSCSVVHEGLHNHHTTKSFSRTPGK
- Test Method Notes: blocking ELISA: antibody (0-50 nM) + 50 pM ErbB3-mFc, binding to coated neuregulin1b
Property: IC50 (nM)
Give a bare numeral; the unit nM is implied.

Can you share its IC50? I mean this binder: H4H2102P (antibody, human IgG4, V domains shown, Human IgG4 Fc (prefix H4H)) VH: EVQLVESGGGLVQPGGSLRLSCAASGFTFSNYDIHWVRQATGKGLEWVSAIGPAGDTYYSDSVKGRFTISREDAKNSLYLQMSSLRAGDTAVYYCASEGIAVRPDDYYGMDVWGQGTTVTVSA VL: DIQLTQSPSFLSASVGDRVTITCWASQDITSYLAWYQKKPGKAPKLLIYAASTLQSGVPSRFSGSGSGTEFTLTISSLQPEDFAAYYCQQLNSYPLTFGGGTKVDIKR
0.186

Lookup H4H2290P (antibody, human IgG4, V domains shown, Human IgG4 Fc (prefix H4H)) VH: EVQLLESGGGLVQPGGSLRLSCVASGFTFSSFAMSWVRQAPGKGLEWVSVISGSGGSTNHADSVRGRFTISRDNSLNTVYLQMHSLRAEDTALYYCVKAETSSSYFYYGMDVWGQGTTVTVSS VL: DIQLTQSPSFLSASVGDRVTITCWASQDISSYLAWYQQKPGKVPNLLIYGASSLQPGVPSRFSGSGSGTEFTLTISSLQPEDFATYYCQQLNNYPTFGGGTKLEIKR
0.0664

Lookup H4H2143P (antibody, human IgG4, V domains shown, Human IgG4 Fc (prefix H4H)) VH: EVQLVESGGGLVQPGRSLRLSCAASGFTFGDYAMHWVRQAPGKGLEWVSGINLNSGTIGYADSVKGRFTISRDNAKNSLYLQMNSLRAEDTAFYYCAKDIDGYYHYAMDVWGQGTTVTVSS VL: DVVMTQSPSFLSASVGDRVTITCWASQGISSYLAWYQQKPGKAPKLLIYDASTLESGVPSRFSGSGSGTEFTLTISNLQPEDFATYYCQQVNSYPLTFGGGTKVEIKR
0.0835

Lookup H4H2111P (antibody, human IgG4, V domains shown, Human IgG4 Fc (prefix H4H)) VH: QVQLVESGGGVVQPGRSLRLSCAASGFTFNNYGMHWVRQAPGKGLAWVAVMWYSESHKYYADSVKGRFTISRDNSKNTLYLEMNSLRVEDTAIYYCARDLGDPDAFDIWGQGTMVTVSS VL: DIQLTQSPSFLSASVGDRVTITCWASQGISSYLAWYQQKPGKAPKLLIYGASTLQSGVPSRFSGSGSGTEFTLTISSLQPEDFATYYCQQLNSYPLTFGGGTKVEIKR
0.0497

Lookup H4H1819N (antibody, human IgG4, V domains shown, Human IgG4 Fc (prefix H4H)) VH: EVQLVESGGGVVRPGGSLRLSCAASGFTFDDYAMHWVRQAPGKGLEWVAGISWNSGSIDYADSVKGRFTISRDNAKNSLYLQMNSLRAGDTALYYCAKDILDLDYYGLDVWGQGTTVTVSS VL: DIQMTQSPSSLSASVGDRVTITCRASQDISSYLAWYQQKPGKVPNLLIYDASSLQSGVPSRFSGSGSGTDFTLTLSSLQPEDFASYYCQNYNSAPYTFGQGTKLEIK
0.02
